Values compiled from patent US4530791A.

Test system: Pseudomonas putida 5121
assay-protocol: Antibacterial spectrum (minimum inhibitory concentration)
Format: cell-based
measured-property: MIC (µg/mL)

(I) CC(=O)NC=C[S+]([O-])C1=C(C(=O)O)N2C(=O)C(C(C)(C)O)C2C1 (stereo not shown)
(II) CC(=O)NC=C[S+]([O-])C1=C(C(=O)O)N2C(=O)C(C(C)(C)OS(=O)(=O)O)C2C1 (stereo not shown)
[ask] Higher MIC between I and II ? Return value: the label identifying the chosen record.
[reply] II
(II: 100 µg/mL, I: 1.56 µg/mL)

###

Tested on: Excherichia coli NIHJ JC-2
measured-property: MIC (µg/mL)

INSERT INTO assay_data (compound, reported_value) VALUES
  ('CC1(C)S[C@@H]2[C@H](NC(=O)[C@H](N)c3ccccc3)C(=O)N2[C@H]1C(=O)O [AB-Pc, aminobenzyl penicillin, reference compound]', 6.25);

(P) CO[C@@]1(NC(=O)Cc2cccs2)C(=O)N2C(C(=O)O)=C(COC(N)=O)CS[C@@H]21 [CFX, cefoxitin, reference compound]
(Q) CC(=O)NC=C[S+]([O-])C1=C(C(=O)O)N2C(=O)C(C(C)(C)OS(=O)(=O)O)C2C1 (stereo not shown)
(R) CC(=O)NC=C[S+]([O-])C1=C(C(=O)O)N2C(=O)C(C(C)(C)O)C2C1 (stereo not shown)
[ask] Please put the entries in order of rising MIC. Form entry: labels listed in requested order.
[reply] R, Q, P
(R: 0.05 µg/mL, Q: 1.56 µg/mL, P: 6.25 µg/mL)

###

Tested on: Klebsiella 32 (CS ase)
measured-property: MIC (µg/mL)

(P) CC(=O)NC=C[S+]([O-])C1=C(C(=O)O)N2C(=O)C(C(C)(C)O)C2C1 (stereo not shown) [KA-6643-A]
(Q) CC(=O)NC=C[S+]([O-])C1=C(C(=O)O)N2C(=O)C(C(C)(C)OS(=O)(=O)O)C2C1 (stereo not shown) [KA-6643-B]
[ask] Input pair: P , Q . Output: entry with lower MIC. Your choice should be expressed through its label.
[reply] P
(P: 3.13 µg/mL, Q: 12.5 µg/mL)
